- assay target: T1, HA-GCN4 hAPRIL (amino acid residues 105-250) (human, UniProt O75888 105-250)
- T1 construct: Bought (R&D Systems); also called HA-tagged GCN4 human APRIL; HA-GCN4-huAPRIL; not shown: N-terminal HA tag; GCN4 isoleucine zipper oligomerization domain
- T1 sequence: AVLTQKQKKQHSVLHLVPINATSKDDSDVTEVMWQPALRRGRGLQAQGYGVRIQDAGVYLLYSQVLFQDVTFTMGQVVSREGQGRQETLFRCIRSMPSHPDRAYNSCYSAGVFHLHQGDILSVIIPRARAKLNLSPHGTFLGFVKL
- test method notes: blocking ELISA, 4-parameter fit; blocked: human APRIL binding to human TACI-Fc
Label Yes when IC50 is strictly below 2 nM; otherwise label No.

Inquiry: Is it true that IC50 reported for 3934 (antibody, V domains shown, also called monoclonal antibody 3934) VH: QVQLQQSGPELVKPGASVKLSCKAAGYIFTDYTINWVKQSPGQGLEWIGWIYPGSGNRKYNDKFKGKATMTADKSSSTAYMQLSSLTSEDSAVYFCARESNYVGYYAMDYWGQGTSVTVSS VL: DVLMTQTPLSLPVSLGDQASISCRSSQSVVNSNGNTYLEWYLQKPGQSPNLLIYKVSNRFSGVPDRFSGSGSGTDFTLKISRVEAEDLGVYYCFQGSHVPWTFGGGTKLEIK is less than 2 nM?
Reply text: No

Inquiry: Is it true that IC50 reported for 4237 (antibody, V domains shown, also called monoclonal antibody 4237) VH: QAHLKESGPGLVAPSQSLSITCTVSGFSLTDYDVHWVRQSPGKGLEWLGVIWNDGSTDYNTAFISRLTISKDNSKSQVFFKMNSLQADDTAIYYCARNWYGGYWFAYWGQGTLVTVSA VL: DIQMTQSPASLSASAGETVTITCRSSENIYSYLAWYQQKQGKSPQLLVYNANALAEGVPSRFSGSGSVTQFSLKINSLQPEDFGSYYCQHHYGTPFTFGSGTKLEIK is less than 2 nM?
Reply text: Yes

Inquiry: Is it true that IC50 reported for monoclonal antibody 3530 (antibody, mouse IgG2, V domains shown) VH: QVQLQQSGAELVRPGASVKLSCKASGYTFTDHEMHWVRQTPVHGLEWIGVIDPDTGDTTYNQKFKGKATLTADKSSSTAYMDLRSLTSEDSAVFYCTRWTGGDYWGHGTTLTVSS VL: DAVMTQTPLSLSVTIGQPASISCKSSQSLLYSDGKTYLNWFQQRPGQSPKRLMYQVSKLDPGIPDRFSGSGSETDFTLKISRVEAEDLGVYYCLQGTYYPYTFGSGTKLEIK is less than 2 nM?
Reply text: No

Inquiry: Is it true that IC50 reported for monoclonal antibody 2218 (antibody, mouse IgG2, V domains shown) VH: DVQLQESGPGLVKPSQSLSLTCSVTGYSITSGYYWNWIRQFPGNKLEWMGYISYDGYNNYNPSLKNRISITRDTSKNQFFLKLNSVTTEDTATYYCANYYDYEDWYFGVWGTGTTVTVSS VL: DIVLTQSPASLAMSLGKRATISCRASESVSIIGTNSIHWYQQKPGQPPKLLIYHASNLETGVPARFSGSGSRTDFTLTIDPVEEDDVAIYYCLQSRKIPYTFGGGTKLEIK is less than 2 nM?
Reply text: Yes

Inquiry: Is it true that IC50 reported for monoclonal antibody 3833 (antibody, V domains shown, mouse-derived) VH: QVQLQQSGAELVRPGTSVKMSCKAAGYTFTNYWIGWVKQRPGHGLEWIGDIYPGGIGGGYTKYNEKFKGKATLTADTSSSTAYMQLGSLTSEDSAIYFCSRSETGRAMDYWGQGTSVTVSS VL: DIQMTQSPSSLSASLGGKVTITCKASQDINKYIAWYQHKPGKGPRLLIHYTSTLKPGIPSRFSGSGSGRDYSFSISDLEPEDIATYYCLQYDNLNTFGGGTKLEIK is less than 2 nM?
Reply text: No
